Listing of entries alongside the reported pIC50.
biological target: SYK kinase (Homo sapiens, UniProt P43405)
pIC50: −log10 of the molar value.

The measured pIC50 associated with CS(=O)(=O)c1ccc2nc(Nc3ccc(N4CCC(O)CC4)cc3)c3[nH]ncc3c2c1 reads 7.00 to 8.00

The measured pIC50 associated with COc1ccc2nc(Nc3ccc(N4CCC(N5CCN(C)CC5)CC4)cc3)c3n[nH]cc3c2c1 reads 6.00 to 7.00

The measured pIC50 associated with COCCn1cc(Nc2nc3ccc(S(C)(=O)=O)cc3c3cn[nH]c23)cn1 reads 7.00 to 8.00

---

molecular target: LRRK2 (Homo sapiens, UniProt Q5S007); assay: LRRK2-LRRK2 G2019S-Assay (LanthaScreen Eu Kinase Binding Assay); conditions: 5 nM LRRK2, 10 nM tracer 236, 2 nM EU-Anti-GST antibody, 1 h at RT; read-out: LRRK2 Activities: IC50
Sequence (Q5S007 970-2527 limits assumed): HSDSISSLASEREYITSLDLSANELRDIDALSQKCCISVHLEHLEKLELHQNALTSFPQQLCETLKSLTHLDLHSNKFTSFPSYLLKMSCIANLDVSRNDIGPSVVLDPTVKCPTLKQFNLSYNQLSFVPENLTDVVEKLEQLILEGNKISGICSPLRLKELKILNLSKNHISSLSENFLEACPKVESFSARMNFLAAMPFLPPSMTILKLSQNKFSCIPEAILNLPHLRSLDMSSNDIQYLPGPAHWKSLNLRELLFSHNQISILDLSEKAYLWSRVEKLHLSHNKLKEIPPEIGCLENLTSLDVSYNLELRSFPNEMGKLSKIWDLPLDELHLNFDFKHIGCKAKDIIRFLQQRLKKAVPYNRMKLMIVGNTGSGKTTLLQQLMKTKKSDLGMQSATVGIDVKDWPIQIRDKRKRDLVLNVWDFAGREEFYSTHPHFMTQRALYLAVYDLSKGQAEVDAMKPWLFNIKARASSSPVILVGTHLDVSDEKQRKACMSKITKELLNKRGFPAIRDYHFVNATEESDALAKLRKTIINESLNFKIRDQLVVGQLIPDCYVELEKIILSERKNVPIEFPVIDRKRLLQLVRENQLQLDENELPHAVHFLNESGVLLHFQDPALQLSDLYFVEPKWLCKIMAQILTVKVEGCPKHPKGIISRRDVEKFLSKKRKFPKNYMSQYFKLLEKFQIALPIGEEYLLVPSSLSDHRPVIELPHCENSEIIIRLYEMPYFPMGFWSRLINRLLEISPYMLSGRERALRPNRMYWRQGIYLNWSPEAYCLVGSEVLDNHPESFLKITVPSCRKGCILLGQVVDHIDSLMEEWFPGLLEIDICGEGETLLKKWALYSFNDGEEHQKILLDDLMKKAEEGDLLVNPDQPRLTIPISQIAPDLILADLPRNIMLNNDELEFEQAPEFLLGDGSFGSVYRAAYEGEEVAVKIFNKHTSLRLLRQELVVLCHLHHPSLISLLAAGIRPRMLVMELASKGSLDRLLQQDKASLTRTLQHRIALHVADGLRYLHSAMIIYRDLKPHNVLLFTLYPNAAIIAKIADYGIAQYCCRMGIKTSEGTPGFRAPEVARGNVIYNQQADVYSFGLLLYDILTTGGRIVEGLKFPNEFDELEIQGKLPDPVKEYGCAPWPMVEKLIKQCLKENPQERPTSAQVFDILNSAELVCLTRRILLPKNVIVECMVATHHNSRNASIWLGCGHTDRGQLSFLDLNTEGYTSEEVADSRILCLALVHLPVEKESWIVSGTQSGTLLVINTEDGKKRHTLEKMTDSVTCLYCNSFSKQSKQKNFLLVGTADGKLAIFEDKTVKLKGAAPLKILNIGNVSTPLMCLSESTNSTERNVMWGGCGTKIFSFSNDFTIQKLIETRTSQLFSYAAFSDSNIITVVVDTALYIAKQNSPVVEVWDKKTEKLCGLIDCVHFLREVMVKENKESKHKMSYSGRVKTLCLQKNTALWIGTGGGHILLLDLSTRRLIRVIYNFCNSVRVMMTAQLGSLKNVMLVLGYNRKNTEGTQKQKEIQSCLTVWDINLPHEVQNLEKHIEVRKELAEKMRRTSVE
parameter: IC50

The measured IC50 associated with COc1cccc2nc(Nc3ccc(C(=O)N4CCOCC4)cc3)c3[nH]ncc3c12 reads 10 to 100 nM

The measured IC50 associated with CC(=O)N1CCC(n2cc(Nc3nc4cc(S(C)(=O)=O)ccc4c4cn[nH]c34)cn2)CC1 reads 10 to 100 nM

The measured IC50 associated with COc1ccc2nc(Nc3cccc(CN4CCOCC4)c3)c3n[nH]cc3c2c1 reads 100 to 1000 nM

---

Target: LRRK2 (Homo sapiens)
Test: LRRK2-LRRK2 G2019S-Assay (LanthaScreen Eu Kinase Binding Assay)
Conditions: 5 nM LRRK2, 10 nM tracer 236, 2 nM EU-Anti-GST antibody, 1 h at RT; read-out: LRRK2 Activities: IC50
Procedure: In the assay LanthaScreen™ Eu Kinase Binding Assay by Invitrogen Corporation (Carlsbad) the effect of invention of a compound on the phosphorylation is determined by measurement of fluorescence intensity emission ratio based on the binding and displacement of a proprietary, Alexa Fluor® 647-labeled, ATP-competitive kinase inhibitor scaffold (kinase tracer) to the kinase of interest. […] The fluorescence intensity ratio is directly proportional to the amount of peptide phosphorylation. […]
parameter: IC50

In the examples that follow, each entry is paired with its recorded IC50.
compound: CS(=O)(=O)c1ccc2nc(Nc3ccc4c(c3)N(C(=O)C3CC3)CCC4)c3n[nH]cc3c2c1
IC50: 100 to 1000 nM
//
compound: Cc1nn(CCF)cc1Nc1nc2ccc(S(C)(=O)=O)cc2c2cn[nH]c12
IC50: < 10 nM
//
compound: COc1cccc2nc(Nc3ccc4c(c3)S(=O)(=O)C=C4)c3[nH]ncc3c12
IC50: 10 to 100 nM

The measured IC50 associated with Cc1nn(C(C)C)cc1Nc1nc2ccc(S(C)(=O)=O)cc2c2cn[nH]c12 [Example 217] reads 10 to 100 nM

The measured IC50 associated with COc1cccc2nc(Nc3ccc(N4CCN(C(C)(C)C)CC4)cc3)c3[nH]ncc3c12 reads 10 to 100 nM

The measured IC50 associated with CC(=O)Nc1cc(Nc2nc3ccc(S(C)(=O)=O)cc3c3c[nH]nc23)ccc1N1CCN(C(C)=O)CC1 reads 10 to 100 nM

The measured IC50 associated with CC(=O)N1CCN(c2ccc(Nc3nc4ccc(C)cc4c4cn[nH]c34)cc2)CC1 reads 10 to 100 nM

The measured IC50 associated with CCN1C(=O)COc2ccc(Nc3nc4ccc(S(C)(=O)=O)cc4c4c[nH]nc34)cc21 reads 10 to 100 nM

The measured IC50 associated with COc1ccc(Nc2nc3ccc(SC)cc3c3cn[nH]c23)cc1OC reads 100 to 1000 nM

The measured IC50 associated with CS(=O)(=O)c1ccc2nc(Nc3cnn(CCO)c3)c3[nH]ncc3c2c1 reads < 10 nM

The measured IC50 associated with Fc1cccc2nc(Nc3ccc(N4CCN(C5CC5)CC4)cc3)c3[nH]ncc3c12 reads 100 to 1000 nM

The measured IC50 associated with CS(=O)(=O)c1ccc2nc(Nc3cnn(C4CCCOC4)c3)c3n[nH]cc3c2c1 (centres unmarked) reads 10 to 100 nM

The measured IC50 associated with COCCCn1cc(Nc2nc3ccc(S(C)(=O)=O)cc3c3cn[nH]c23)cn1 reads < 10 nM

The measured IC50 associated with COCC(COC)n1cc(Nc2nc3ccc(OC)cc3c3c[nH]nc23)cn1 reads 10 to 100 nM

The measured IC50 associated with COc1cccc2nc(Nc3cnn(C4CCN(C(C)=O)CC4)c3)c3[nH]ncc3c12 reads < 10 nM

The measured IC50 associated with CC(C)Cn1cc(Nc2nc3cc(S(C)(=O)=O)ccc3c3cn[nH]c23)cn1 reads 10 to 100 nM

The measured IC50 associated with CS(=O)(=O)c1ccc2c(c1)nc(Nc1ccc(C(=O)N3CCOCC3)c(F)c1)c1[nH]ncc12 reads 100 to 1000 nM

---

molecular target: LRRK2 (Homo sapiens); experiment: LRRK2-LRRK2 G2019S-Assay (LanthaScreen Eu Kinase Binding Assay); conditions: 5 nM LRRK2, 10 nM tracer 236, 2 nM EU-Anti-GST antibody, 1 h at RT; read-out: LRRK2 Activities: IC50
pIC50: −log10 of the molar value.
Listing of entries alongside the reported pIC50.

In the examples that follow, each entry is paired with its recorded pIC50.
molecule: COc1ccc2nc(Nc3cnn(-c4ccccn4)c3)c3n[nH]cc3c2c1
assayed-system: LRRK2 (Homo sapiens)
pIC50: 7.00 to 8.00
--
molecule: COc1cc(C(=O)N2CCOCC2)ccc1Nc1nc2cc(S(C)(=O)=O)ccc2c2cn[nH]c12
assayed-system: LRRK2 (Homo sapiens)
pIC50: 6.00 to 7.00
--
molecule: COc1cccc2nc(Nc3cn(C(C)C)nc3C)c3[nH]ncc3c12 [Example 220]
assayed-system: LRRK2 (Homo sapiens)
pIC50: > 8.00
--
molecule: COCCn1ncc(Nc2nc3ccc(S(C)(=O)=O)cc3c3cn[nH]c23)c1C [Example 210]
assayed-system: LRRK2 (Homo sapiens)
pIC50: 7.00 to 8.00
--
molecule: COCCn1ncc(Nc2nc3ccc(S(C)(=O)=O)cc3c3cn[nH]c23)c1C [Example 282]
assayed-system: LRRK2 (Homo sapiens)
pIC50: 6.00 to 7.00
--
molecule: COc1ccc2nc(Nc3cnn(C4CCN(C)CC4)c3)c3n[nH]cc3c2c1
assayed-system: LRRK2 (Homo sapiens)
pIC50: 7.00 to 8.00
--
molecule: COc1cccc2nc(Nc3ccc(-c4cnco4)cc3)c3[nH]ncc3c12
assayed-system: LRRK2 (Homo sapiens)
pIC50: 7.00 to 8.00
--
molecule: CS(=O)(=O)c1ccc2nc(Nc3ccc4c(c3)NC(=O)CS4)c3n[nH]cc3c2c1
assayed-system: LRRK2 (Homo sapiens)
pIC50: 7.00 to 8.00

The measured pIC50 associated with COCCn1ncc(Nc2nc3cc(S(C)(=O)=O)ccc3c3cn[nH]c23)c1Cl reads 7.00 to 8.00

---

As a worked illustration, we turn to IC50 data collected for SYK kinase (Homo sapiens, UniProt P43405).

molecule: COc1ccc2nc(Nc3ccc(N4CCC(N5CCOCC5)CC4)cc3)c3n[nH]cc3c2c1 [Example 86]
IC50: 100 to 1000 nM
//
molecule: CN1CCC(n2cc(Nc3nc4cc(S(C)(=O)=O)ccc4c4cn[nH]c34)cn2)CC1 [Example 167]
IC50: 10 to 100 nM

Summary: COc1ccc2nc(Nc3cnn(C(C)C)c3)c3[nH]ncc3c2c1 [Example 292] , SYK kinase (Homo sapiens, UniProt P43405), IC50 = 10 to 100 nM

Summary: COc1ccc2nc(Nc3ccc(N4CCN(CCO)CC4)cc3)c3[nH]ncc3c2c1 [Example 297] , SYK kinase (Homo sapiens, UniProt P43405), IC50 = 10 to 100 nM

---

molecular target: LRRK2 (Homo sapiens, UniProt Q5S007); test: LRRK2-LRRK2 G2019S-Assay (LanthaScreen Eu Kinase Binding Assay); conditions: 5 nM LRRK2, 10 nM tracer 236, 2 nM EU-Anti-GST antibody, 1 h at RT; read-out: LRRK2 Activities: IC50
Listing of entries alongside the reported IC50.

In the examples that follow, each entry is paired with its recorded IC50.
smiles-entry: Fc1cccc2nc(Nc3ccc(CN4CCOCC4)cc3)c3[nH]ncc3c12
IC50: 100 to 1000 nM
--
smiles-entry: COc1cccc2nc(Nc3ccc(N4CCN(S(C)(=O)=O)CC4)cc3)c3[nH]ncc3c12
IC50: 10 to 100 nM
--
smiles-entry: Cc1c(Nc2nc3ccc(S(C)(=O)=O)cc3c3c[nH]nc23)cnn1CC(C)(C)O
IC50: 100 to 1000 nM

Summary: CS(=O)(=O)c1ccc2nc(Nc3cnn(C4CC4)c3)c3[nH]ncc3c2c1 , LRRK2 (Homo sapiens, UniProt Q5S007), IC50 = < 10 nM

Data origin, for the record: patent US10752624B2
